biological target: Serine/threonine-protein kinase pim-1 (Homo sapiens); experiment: Inhibition of full length recombinant PIM1 (unknown origin) using biotinylated-BAD peptide as substrate assessed as phosphorylation at serine 112 after 2 hrs by HTRF method
Sequence (P11309 whole entry): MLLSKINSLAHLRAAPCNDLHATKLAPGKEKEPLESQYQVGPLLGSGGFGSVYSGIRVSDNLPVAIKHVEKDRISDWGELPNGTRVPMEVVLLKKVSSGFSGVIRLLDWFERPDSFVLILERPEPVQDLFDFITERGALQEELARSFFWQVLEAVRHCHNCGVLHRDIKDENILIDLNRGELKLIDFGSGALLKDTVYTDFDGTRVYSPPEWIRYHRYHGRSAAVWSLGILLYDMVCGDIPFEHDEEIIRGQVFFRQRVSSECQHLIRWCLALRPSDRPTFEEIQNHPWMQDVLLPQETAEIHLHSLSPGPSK
pIC50: −log10 of the molar value.
quantity: pIC50

Completed entries (count: 3):
cpdSmiles | pIC50
CNc1nnc(-c2ccc3[nH]cc(-c4cnc5ccccc5c4)c3c2)s1 | 6.57
Nc1nnc(-c2ccc3[nH]cc(-c4cccc(N5CCOCC5)n4)c3c2)s1 | 7.80
Nc1nnc(-c2ccc3[nH]cc(-c4cncc(N5CCOCC5)n4)c3c2)s1 | 8.30

a. CSc1nnc(-c2ccc3[nH]cc(-c4cnc5ccccc5c4)c3c2)s1
b. Nc1nnc(-c2ccc3[nH]cc(-c4cncc(N5CCCC5)n4)c3c2)s1
Q: Hi, I'm comparing two records. Which one has the lower pIC50, a or b ? I would appreciate it if you answered with the label of your choice.
Result: a
(a: 5.55, b: 7.96)

P. CC(C)Oc1cccc(-c2c[nH]c3ccc(-c4nnc(N)s4)cc23)n1
Q. Nc1nnc(-c2ccc3[nH]cc(-c4c(F)cccc4F)c3c2)s1
Q: Lower pIC50: P or Q ? // caller expects the label of the chosen entry
Result: Q
(Q: 6.75, P: 8.15)

A. Nc1nnc(-c2ccc3[nH]cc(-c4cnc5ccccc5c4)c3c2)s1
B. CC(C)Oc1cncc(-c2c[nH]c3ccc(-c4nnc(N)s4)cc23)n1
Q: I would appreciate it if you could say which entry, A or B , has the lower pIC50 value. Choose, then provide that item's label.
Result: A
(A: 6.79, B: 8.10)
